- assayed-system: human TLR7 (Homo sapiens (Human))
- Sequence (Q9NYK1 27-1049): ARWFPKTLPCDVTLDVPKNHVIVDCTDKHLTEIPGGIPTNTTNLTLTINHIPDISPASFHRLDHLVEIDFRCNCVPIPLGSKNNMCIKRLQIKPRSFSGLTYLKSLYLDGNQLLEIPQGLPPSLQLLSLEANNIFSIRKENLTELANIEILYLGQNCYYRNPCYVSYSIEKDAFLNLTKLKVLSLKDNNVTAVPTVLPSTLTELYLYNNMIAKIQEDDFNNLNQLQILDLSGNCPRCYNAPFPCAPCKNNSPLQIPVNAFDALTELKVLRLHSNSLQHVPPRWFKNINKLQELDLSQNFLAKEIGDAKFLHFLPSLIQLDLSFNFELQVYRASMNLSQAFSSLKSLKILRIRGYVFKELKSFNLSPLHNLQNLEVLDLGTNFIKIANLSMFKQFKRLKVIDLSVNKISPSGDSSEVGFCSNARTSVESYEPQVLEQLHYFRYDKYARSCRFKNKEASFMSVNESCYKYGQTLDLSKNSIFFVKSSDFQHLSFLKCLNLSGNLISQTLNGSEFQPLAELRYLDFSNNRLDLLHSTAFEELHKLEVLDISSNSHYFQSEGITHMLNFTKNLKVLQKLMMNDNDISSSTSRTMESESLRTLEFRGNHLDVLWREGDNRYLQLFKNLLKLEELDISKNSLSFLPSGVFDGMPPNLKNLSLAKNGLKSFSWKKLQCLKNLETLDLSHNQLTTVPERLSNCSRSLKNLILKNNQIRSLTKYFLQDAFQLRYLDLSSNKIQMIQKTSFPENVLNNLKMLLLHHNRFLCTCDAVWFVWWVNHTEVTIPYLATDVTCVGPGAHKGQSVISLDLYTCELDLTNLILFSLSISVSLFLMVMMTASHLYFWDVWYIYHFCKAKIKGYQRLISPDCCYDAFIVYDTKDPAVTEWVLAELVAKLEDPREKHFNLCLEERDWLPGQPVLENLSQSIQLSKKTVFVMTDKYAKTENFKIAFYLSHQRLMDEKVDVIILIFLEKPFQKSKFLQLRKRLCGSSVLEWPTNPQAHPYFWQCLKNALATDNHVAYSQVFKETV
- assay-protocol: TLR7 inhibition reporter assay (HEK-Blue SEAP)
- Type: cell-based
- condition-description: HEK-Blue cells overexpressing human TLR7, SEAP reporter, gardiquimod 7.5 μM
pIC50: −log10 of the molar value.
Entry flag: Fulfilled if pIC50 reaches 8; Not fulfilled if it does not.

{"columns": ["compound", "assayed-system", "qualitative-label"],
 "data": [
  ["COc1cc(-c2[nH]c3ccc(CCC4CN(C5COC5)C4)nc3c2C(C)C)cn2ncnc12", "human TLR7 (Homo sapiens (Human))", "Not fulfilled"],
  ["Cc1c(-c2[nH]c3ccc(C4CCN(CC(=O)N(C)C)CC4)nc3c2C(C)C)cn2ncnc2c1C", "human TLR7 (Homo sapiens (Human))", "Fulfilled"],
  ["COc1cc(-c2[nH]c3cc(C)c(C(=O)N(C)CCC(F)(F)F)nc3c2C(C)C)cn2ncnc12", "human TLR7 (Homo sapiens (Human))", "Not fulfilled"]
]}

# bool: pIC50 of Cc1c(-c2[nH]c3ccc(CCC4CN(C(=O)CN(C)C)C4)nc3c2C(C)C)cn2ncnc2c1C >= 8 Not fulfilled

# bool: pIC50 of COc1cc(-c2[nH]c3cc(C)c(C(=O)N4CCN(C(C)=O)CC4)nc3c2C(C)C)cn2ncnc12 >= 8 Not fulfilled

# bool: pIC50 of Cc1c(-c2[nH]c3ccc(C4CCN(C(=O)CN(C)C)CC4)nc3c2C(C)C)cn2ncnc2c1C >= 8 Fulfilled

# bool: pIC50 of Cc1c(-c2[nH]c3ccc(C4CCC(N(C)C(=O)CN(C)C)CC4)nc3c2C(C)C)cn2ncnc2c1C (stereo not shown) [Example 404] >= 8 Fulfilled
